Target: HDAC6 enzyme (Homo sapiens, UniProt Q9UBN7)
Construct: HDAC6 enzyme prepared by transducing full length HDAC6 gene into Sf-9 insect cells; GST; purchased SignalChem; host or cells: Sf-9 insect cells
Sequence (Q9UBN7 whole entry): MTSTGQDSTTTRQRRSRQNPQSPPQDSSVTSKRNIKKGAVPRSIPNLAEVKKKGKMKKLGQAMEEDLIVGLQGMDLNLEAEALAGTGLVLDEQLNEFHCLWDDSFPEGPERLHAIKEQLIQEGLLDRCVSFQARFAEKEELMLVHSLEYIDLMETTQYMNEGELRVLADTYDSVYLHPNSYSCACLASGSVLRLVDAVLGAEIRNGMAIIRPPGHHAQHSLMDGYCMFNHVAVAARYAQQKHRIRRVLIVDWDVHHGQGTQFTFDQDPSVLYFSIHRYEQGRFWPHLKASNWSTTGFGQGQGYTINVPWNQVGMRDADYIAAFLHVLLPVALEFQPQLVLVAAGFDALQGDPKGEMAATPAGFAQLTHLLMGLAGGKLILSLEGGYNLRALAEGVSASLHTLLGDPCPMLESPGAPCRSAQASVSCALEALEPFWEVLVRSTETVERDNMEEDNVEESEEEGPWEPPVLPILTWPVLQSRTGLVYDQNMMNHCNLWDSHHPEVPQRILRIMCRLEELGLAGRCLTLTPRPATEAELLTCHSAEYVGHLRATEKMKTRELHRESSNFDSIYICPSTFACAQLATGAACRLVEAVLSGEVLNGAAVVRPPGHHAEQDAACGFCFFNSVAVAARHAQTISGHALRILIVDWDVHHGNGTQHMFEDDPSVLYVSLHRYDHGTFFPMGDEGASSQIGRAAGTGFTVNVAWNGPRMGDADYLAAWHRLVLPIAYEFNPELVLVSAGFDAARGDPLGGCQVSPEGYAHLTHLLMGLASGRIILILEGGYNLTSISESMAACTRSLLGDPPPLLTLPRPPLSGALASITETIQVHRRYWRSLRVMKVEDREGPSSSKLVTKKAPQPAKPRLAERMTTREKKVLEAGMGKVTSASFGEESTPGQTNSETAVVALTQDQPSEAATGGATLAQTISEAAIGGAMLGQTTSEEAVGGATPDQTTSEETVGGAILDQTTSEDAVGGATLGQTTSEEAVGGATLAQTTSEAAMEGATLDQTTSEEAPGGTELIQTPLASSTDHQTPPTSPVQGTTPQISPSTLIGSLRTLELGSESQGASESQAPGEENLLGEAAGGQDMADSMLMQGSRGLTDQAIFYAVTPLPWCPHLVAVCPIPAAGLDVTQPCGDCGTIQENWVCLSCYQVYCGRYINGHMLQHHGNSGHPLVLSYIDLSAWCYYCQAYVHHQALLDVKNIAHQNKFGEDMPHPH
Assay: HDAC6 enzyme inhibitory assay (HDAC-Glo I/II Assay kit)
Assay type: biochemical
Details: wells without enzyme = 100% inhibition, read-out: HDAC6 inhibitory rate (%) (10 μM)
Description: Experimental Example 1 HDAC6 Enzyme Inhibitory Assay HDAC6 enzyme prepared by transducing full length HDAC6 gene into Sf-9 insect cells and purifying by GST affinity column were purchased from SignalChem. Using this enzyme, HDAC6 enzyme inhibitory activity of the compound of the present invention were evaluated. […] HDAC6 enzyme inhibitory activity of the compound of the present invention was measured using HDAC-Glo™ I/II Assay kit (Promega) according to the following experimental method. […]
Reported inhibition at 10 µM is given for each of the following molecules.
Readout: inhibition at 10 µM (%)

>>> measured("O=C1c2cc(-c3nnc(C(F)F)o3)ccc2CN1[C@H](c1cccc(C(F)(F)F)c1)[C@@H](O)c1ccccn1 (racemic)")
99
>>> measured("O=C1c2cc(-c3nnc(C(F)F)o3)ccc2CN1[C@H](c1ccc(F)cc1)[C@@H](O)c1cccc(F)c1 (racemic)")
99
>>> measured("O=C1c2cc(-c3nnc(C(F)F)o3)ccc2CN1[C@H](C1CCOCC1)[C@H](O)c1ccc(F)cc1")
101
>>> measured("O=C1c2cc(-c3nnc(C(F)F)o3)ccc2CN1[C@H](c1cccnn1)[C@@H](O)c1ccc(F)c(F)c1 (single isomer, unassigned)")
100
>>> measured("O=C1c2cc(-c3nnc(C(F)F)o3)ccc2CN1[C@H](C1CC1)[C@@H](O)c1ccc(F)cn1")
100
>>> measured("O=C1c2cc(-c3nnc(C(F)F)o3)ccc2CN1[C@H](C1CCOCC1)[C@@H](O)c1ccc(Cl)cc1 (single isomer, unassigned)")
101
>>> measured("O=C1c2cc(-c3nnc(C(F)F)o3)ccc2CN1[C@H](c1ccccn1)[C@@H](O)c1cc(Cl)ccn1 (single isomer, unassigned)")
101
>>> measured("O=C1c2cc(-c3nnc(C(F)F)o3)ccc2CN1[C@H](C1CC1)[C@@H](O)c1ccc(F)cc1")
100
>>> measured("O=C1c2cc(-c3nnc(C(F)F)o3)ccc2CN1[C@H](c1cccc(F)n1)[C@@H](O)c1cccc(F)c1 (single isomer, unassigned)")
100
>>> measured("O=C1c2cc(-c3nnc(C(F)F)o3)ccc2CN1[C@H](c1ccc(F)cc1)[C@H](O)c1cccc(F)c1 (racemic)")
99
>>> measured("O=C1c2cc(-c3nnc(C(F)F)o3)ccc2CN1[C@H](C1CCOCC1)[C@@H](O)c1cc(F)cc(Cl)c1 (racemic)")
100
>>> measured("O=C1c2cc(-c3nnc(C(F)F)o3)ccc2CN1[C@H](c1ccc(C(F)(F)F)nc1)[C@@H](O)c1ccc(F)cc1 (racemic)")
99
>>> measured("O=C1c2cc(-c3nnc(C(F)F)o3)ccc2CN1[C@H](c1ccc(F)nc1)[C@@H](O)c1ccc(F)cc1 (single isomer, unassigned)")
100
